Provenance of the data: patent US4112097A

# procedureDetails: Acute intravenous toxicity in mice
# Assay type: in vivo, mouse
# conditionSet: mouse, in vivo, iv, mice male and female, injected immediately after formulation (A), read-out: LD50 (95% Confidence Limits)
measurementKind: LD50

For the molecule COc1cc2nc(N3CCN(C(=O)C4CCCO4)CC3)nc(N)c2cc1OC (stereo not shown) , report LD50.
259 mg/kg

###

Record form. Attribute: solubility. Fill in for each entry.
# procedureDetails: physchem
# conditionSet: water
Give bare numbers, in mg/mL.

>>> print(df.to_string())
                                   compound  measurement
0  COc1cc2nc(N3CCN(C(=O)C4CCCO4)CC3)nc(N)c2cc1OC (centres unmarked)          590

Query compound follows.
Give the measured solubility for COc1cc2nc(N3CCN(C(=O)C4CCCCO4)CC3)nc(N)c2cc1OC (centres unmarked)
56.5

###

# procedureDetails: Acute intravenous toxicity in mice
# Type: in vivo, mouse
# conditionSet: mouse, in vivo, iv, mice male and female, injected 24 hours after formulation (B), read-out: LD50 (95% Confidence Limits)
measurementKind: LD50 (mg/kg)
One number for each entry, in mg/kg.

Determine from records and report LD50 for COc1cc2nc(N3CCN(C(=O)C4CCCO4)CC3)nc(N)c2cc1OC (stereo not shown)
253
